# collection of pIC50 values tested on TNF-α (Homo sapiens, UniProt P01375)
# Sequence (P01375 77-233 limits assumed): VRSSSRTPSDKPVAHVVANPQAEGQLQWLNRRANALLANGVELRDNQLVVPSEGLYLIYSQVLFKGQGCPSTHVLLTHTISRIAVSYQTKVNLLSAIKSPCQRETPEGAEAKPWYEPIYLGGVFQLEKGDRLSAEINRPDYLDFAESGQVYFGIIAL
pIC50: −log10 of the molar value.
experimental readout: pIC50

Worked cases, answers included:
{"columns": ["smiles", "experimental result"],
 "data": [
  ["CN(C)c1ccc(C=C2C=C(c3ccc(Cl)c(Cl)c3)NC2=O)cc1", 8.17],
  ["O=C1NN(C(=O)c2ccccc2)C(c2ccc(Cl)c(Cl)c2)=CC1=Cc1ccccc1[N+](=O)[O-]", 8.42],
  ["NNC(=O)C(=Cc1ccccc1[N+](=O)[O-])CC(=O)c1ccc(Cl)c(Cl)c1", 8.23],
  ["O=C1OC(c2ccc(Cl)c(Cl)c2)=CC1=Cc1ccccc1[N+](=O)[O-]", 8.13],
  ["O=C1NN(c2ccccc2)C(c2ccc(Cl)c(Cl)c2)=CC1=Cc1ccccc1[N+](=O)[O-]", 8.31]
]}

a = O=C(NCc1ccccc1)C(=Cc1ccccc1[N+](=O)[O-])CC(=O)c1ccc(Cl)c(Cl)c1
b = O=C1NC(c2ccc(Cl)c(Cl)c2)=CC1=Cc1cccc([N+](=O)[O-])c1
Two entries are listed, a and b . Which one carries the higher pIC50? // output: label of the selected item a
(a: 8.32, b: 8.08)

P = O=C1NN(C(=O)c2ccccc2)C(c2ccc(Cl)c(Cl)c2)=CC1=Cc1cccc([N+](=O)[O-])c1
Q = CN(C)c1ccc(C=C(CC(=O)c2ccc(Cl)c(Cl)c2)c2n[nH]c(=S)o2)cc1
Of P and Q , which carries the smaller reported pIC50 figure? # answer = label of selected item Q

a = O=C(NCc1ccccc1)C(=Cc1cccc([N+](=O)[O-])c1)CC(=O)c1ccc(Cl)c(Cl)c1
b = O=c1[nH]nc(-c2ccc(Cl)c(Cl)c2)cc1Cc1ccccc1[N+](=O)[O-]
Choose between a and b : whose measured pIC50 value is numerically larger? // caller expects the label of the chosen entry a
(a: 8.45, b: 8.07)

I = O=C(CC(=Cc1cccc([N+](=O)[O-])c1)c1n[nH]c(=S)o1)c1ccc(Cl)c(Cl)c1
II = O=C1OC(c2ccc(Cl)c(Cl)c2)=CC1=Cc1cccc([N+](=O)[O-])c1
Lab notebook, comparison: I versus II , higher pIC50 goes to which? // output: label of the selected item I
